# Test system: SK-MEL-2 melanoma
# assay: NCI-60 one-dose screen, 48 h (100 = growth as untreated, 0 = no growth, -100 = all killed)
# testParameters: 10 µM
Compounds without any hit were thinned out: in the full panel of roughly 83,000, 20% have a hit.
I'd appreciate it if you could supply growth values for the items below.
Dear colleague, please return just the value in %, with no unit written.

*Q* Could you tell me which growth is on file for Oc1c(I)cc(I)cc1I ?
*A* 101

*Q* Entry CCCCCCCC[N+]12CN3CN(CN(C3)C1)C2 please
*A* 120

*Q* Entry COC12c3c(C)cc(O)c4c(=O)occ(c34)C(=O)C1C13COC(=O)c4c(O)cc(C)c(c41)C(=O)C2C3OC(C)=O (stereo not given) please
*A* 81.5

*Q* Entry O=C1C(=O)c2ccccc2-c2ccccc21 please
*A* -50.3

*Q* Entry CC(C)c1cc([N+](=O)[O-])cc([N+](=O)[O-])c1O please
*A* 94

----------
# Tested on: HT29 colon
# assay: NCI-60 one-dose screen, 48 h (100 = growth as untreated, 0 = no growth, -100 = all killed)
# testParameters: 10 µM
Compounds without any hit were thinned out: in the full panel of roughly 83,000, 20% have a hit. The source made the active and inactive calls. The calls were made as follows: active = growth percent below 10; inactive = the rest.
quantityKind: growth

*Q* Could you tell me which growth is on file for Oc1c(Cl)cc(Cl)c2ccccc12.[Cu+2] ?
*A* 92.5% (inactive)

*Q* Entry CC(Cc1ccc2c(c1)OCO2)NN (configuration not stated) please
*A* 98.7% (inactive)

*Q* Entry Cc1ccc(NC(=O)CBr)cc1 please
*A* 115% (inactive)

*Q* Entry O=C1CCC(=O)N1SC(Cl)(Cl)Cl please
*A* 102% (inactive)

*Q* Entry O=C1C=Cc2ccccc2C1=O please
*A* 112% (inactive)

*Q* Entry COc1ccc(/C=C(\C)[N+](=O)[O-])cc1OC please
*A* -67% (active)

*Q* Entry COC1CC2C=C(C)/C=C/C=C/C(=O)NC(c3ccccc3)C/C=C/CCC(O)CC(=O)C2=C1O (configuration not stated) please
*A* -83.7% (active)

*Q* Entry COC(=O)C1C(O)C(C)C(O)C(C)/C=C\C=C(C)C(=O)Nc2c(C)c(OC(C)=O)c3c(c2O)C(=O)C(C)=C2OCOC(=C23)C(C)=CC(C)(O)C(O)C(C)C1O (configuration not stated) please
*A* 90.3% (inactive)

*Q* Entry COc1ccccc1/C=C/[N+](=O)[O-] please
*A* 39.5% (inactive)

*Q* Entry O=[N+]([O-])/C=C\c1ccc2c(c1)OCO2 please
*A* 58.2% (inactive)

*Q* Entry CC/C(=C/c1ccc(OC)cc1)[N+](=O)[O-] please
*A* 3.04% (active)

*Q* Entry Cc1cc(C)c(C[N+](C)(C)C)c(C)c1C please
*A* 3.52% (active)

*Q* Entry O=S(=O)(F)c1ccc(Cl)cc1 please
*A* 106% (inactive)

*Q* Entry O=[P+](O)c1ccccc1 please
*A* 118% (inactive)

*Q* Entry CN(CCCl)c1ccc(/C=C/C2=[N+](C)c3ccccc3C2(C)C)cc1 please
*A* 5.58% (active)

*Q* Entry CC(C)(C)OOC(=O)/C=C\C(=O)OOC(C)(C)C please
*A* 105% (inactive)

*Q* Entry CCCCCCCC[N+]12CN3CN(CN(C3)C1)C2 please
*A* 112% (inactive)

*Q* Entry [Cl][Hg][c]1ccc(Cl)s1 please
*A* 25.2% (inactive)

*Q* Entry CCOP(=O)(OCC)C(O)c1ccccc1Cl (configuration not stated) please
*A* 105% (inactive)

*Q* Entry O=[N+]([O-])c1ccc(N(CCO)CCO)c2c1no[n+]2[O-] please
*A* -78.6% (active)

*Q* Entry C/C1=C\[C@H](C)C[C@H](C)OC(=O)C[C@H](c2ccc(O)cc2)NC(=O)[C@@H](Cc2c(Br)[nH]c3ccccc23)N(C)C(=O)[C@H](C)NC(=O)[C@@H](C)C1 please
*A* -33.5% (active)

*Q* Entry O=C(CBr)Nc1ccc(Cl)cc1 please
*A* 4.44% (active)

*Q* Entry C[CH2][Hg][S]c1ccccc1C(=O)O please
*A* -59% (active)

*Q* Entry COc1ccc2c(ccc3oc([N+](=O)[O-])cc32)c1 please
*A* -8.59% (active)

*Q* Entry [O-][n+]1ccccc1S please
*A* 4.75% (active)

*Q* Entry CC(=O)[O][Hg][c]1c(C)c(C)cc(C)c1C please
*A* -62.1% (active)

*Q* Entry CC(=O)Nc1c2sscc-2n(C)c1=O please
*A* -76.2% (active)

----------
# System: KM12 colon
# assay: NCI-60 one-dose screen, 48 h (100 = growth as untreated, 0 = no growth, -100 = all killed)
# testParameters: 10 µM
This is part of a sample that, as a whole, favours compounds with a hit. Of some 83,000 tested, about 20% had one in any assay.
quantityKind: growth (%)
Dear colleague, please return just the value in %, with no unit written.

*Q* Could you tell me which growth is on file for [Cl][Sn]([c]1ccccc1)([c]1ccccc1)[c]1ccccc1 ?
*A* -71.3

*Q* Entry COC1CC2C=C(C)/C=C/C=C/C(=O)NC(c3ccccc3)C/C=C/CCC(O)CC(=O)C2=C1O (centres undefined) please
*A* -76.1

*Q* Entry [Cl][Hg][c]1ccc2ccccc2c1 please
*A* 1.74

*Q* Entry C[C@]12CC[C@H]3[C@@H](CCC4=CC(=O)CC[C@@H]43)[C@@H]1CC[C@@H]2OC(=O)N(CCCl)N=O please
*A* 28.2

*Q* Entry COC12C(COC(N)=O)C3=C(C(=O)C(C)=C(N)C3=O)N1CC1C2N1C (centres undefined) please
*A* 64.2

*Q* Entry CC[C@@H](C)[C@@H]1NC(=O)C(NC(=O)C(CC(C)C)N(C)C(=O)C2CCCN2C(=O)C(C)O)C(C)OC(=O)C(Cc2ccc(OC)cc2)N(C)C(=O)C2CCCN2C(=O)C(CC(C)C)NC(=O)C(C)C(=O)C(C(C)C)OC(=O)C[C@H]1O (some centres undefined) please
*A* -49.8

*Q* Entry COS(=O)(=O)c1ccccc1 please
*A* 104

*Q* Entry CC(Cc1ccc2c(c1)OCO2)NN (centres undefined) please
*A* 103

*Q* Entry [Cl][Hg][c]1ccc(Cl)s1 please
*A* 91.1

----------
# Tested on: ACHN renal
# assay: NCI-60 one-dose screen, 48 h (100 = growth as untreated, 0 = no growth, -100 = all killed)
# testParameters: 10 µM
The panel holds about 83,000 compounds, 20% with a hit somewhere; the sample as a whole holds those more often.
quantityKind: growth (%)
Dear colleague, please return just the value in %, with no unit written.

*Q* Write down the reported growth of COc1ccc(/C=C(\C)[N+](=O)[O-])cc1OC , test system: ACHN renal.
*A* -59.9

*Q* Entry O=[N+]([O-])c1ccc(N2CCOCC2)c2c1no[n+]2[O-] please
*A* 13.6

*Q* Entry CCOP(=O)(OCC)/C(C#N)=C/c1ccc(Br)cc1 please
*A* 98.6

*Q* Entry C=C1C(=O)O[C@@H]2C[C@@H](C)[C@@H]3C=CC(=O)[C@@]3(C)[C@@H](O)[C@H]12 please
*A* -93.5

*Q* Entry COc1ccc2c(ccc3oc([N+](=O)[O-])cc32)c1 please
*A* 2.78

*Q* Entry Oc1c(Cl)cc(Cl)c2ccccc12.[Cu+2] please
*A* 91.9

*Q* Entry C[CH2][Hg][S]c1ccccc1C(=O)O please
*A* -92.9

*Q* Entry O=c1[nH]c2ccccc2n1C1CCN(CCCC(c2ccc(F)cc2)c2ccc(F)cc2)CC1 please
*A* 44.4

*Q* Entry O=C1C=Cc2ccccc2C1=O please
*A* 46.5

*Q* Entry CC(C)C1(NC(=O)C2CC3c4cccc5[nH]cc(c45)CC3N(C)C2)OC2(O)C3CCCN3C(=O)C(Cc3ccccc3)N2C1=O (stereo unspecified) please
*A* 83

*Q* Entry CC(Cc1ccc2c(c1)OCO2)NN (stereo unspecified) please
*A* 98.7

----------
# Tested on: LOX IMVI melanoma
# assay: NCI-60 one-dose screen, 48 h (100 = growth as untreated, 0 = no growth, -100 = all killed)
# testParameters: 10 µM
The panel holds about 83,000 compounds, 20% with a hit somewhere; the sample as a whole holds those more often. The source made the active and inactive calls. How the source made its calls: active means growth percent below 10; inactive means the rest.
I'd appreciate it if you could supply growth values for the items below.

*Q* Could you tell me which growth is on file for Cc1ccc(NC(=O)CBr)cc1 ?
*A* 49.8% (inactive)

*Q* Entry COc1ccc(/C=C(\C)[N+](=O)[O-])cc1OC please
*A* -58.7% (active)

*Q* Entry COc1cc2c(c(OC)c1OC)-c1ccc(O)c(=O)cc1[C@@H](NC(C)=O)CC2 please
*A* 44.1% (inactive)

*Q* Entry CC/C(=C/c1ccc(OC)cc1)[N+](=O)[O-] please
*A* -92.5% (active)

*Q* Entry NC(=O)c1cc([N+](=O)[O-])c(Cl)c([N+](=O)[O-])c1Cl please
*A* -50% (active)

*Q* Entry O=C(CBr)Nc1ccccc1 please
*A* 9.08% (active)

*Q* Entry O=C(O)c1cc(Cc2ccc(O)c(C(=O)O)c2)ccc1O (tested in a mixture with another compound) please
*A* -47.3% (active)

*Q* Entry O=[N+]([O-])/C=C/c1ccc(Cl)cc1[N+](=O)[O-] please
*A* -94.1% (active)

*Q* Entry COC(C(=O)C(O)C(C)O)C1Cc2cc3cc(OC4CC(OC(C)=O)C(OC5CC(O)C(OC)C(C)O5)C(C)O4)cc(O)c3c(O)c2C(=O)C1OC1CC(OC2CC(OC3CC(C)(O)C(OC(=O)C(C)C)C(C)O3)C(O)C(C)O2)C(O)C(C)O1 (centres undefined) please
*A* 1.99% (active)

*Q* Entry COC12C(COC(N)=O)C3=C(C(=O)C(C)=C(N)C3=O)N1CC1C2N1C (centres undefined) please
*A* 28.3% (inactive)

*Q* Entry CC(C)c1cc([N+](=O)[O-])cc([N+](=O)[O-])c1O please
*A* 93.7% (inactive)

*Q* Entry [Cl][Sn]([c]1ccccc1)([c]1ccccc1)[c]1ccccc1 please
*A* -76.1% (active)

*Q* Entry O=C1C(=O)c2ccccc2-c2ccccc21 please
*A* -58.5% (active)

*Q* Entry CCCCCCCC[N+]12CN3CN(CN(C3)C1)C2 please
*A* 97.5% (inactive)

*Q* Entry O=[N+]([O-])c1ccc(Br)c([N+](=O)[O-])c1 please
*A* 13.3% (inactive)

*Q* Entry CC(C)(C)OOC(=O)/C=C\C(=O)OOC(C)(C)C please
*A* 107% (inactive)

*Q* Entry COS(=O)(=O)c1ccccc1 please
*A* 102% (inactive)

*Q* Entry COc1ccccc1[As]=[As]c1ccccc1OC (centres undefined) please
*A* -97.3% (active)

*Q* Entry O=[P+](O)c1ccccc1 please
*A* 102% (inactive)

*Q* Entry COc1ccc2c(ccc3oc([N+](=O)[O-])cc32)c1 please
*A* -35.9% (active)

*Q* Entry O=C1C=Cc2ccccc2C1=O please
*A* 90% (inactive)

*Q* Entry CCOP(=O)(OCC)C(O)c1ccccc1Cl (centres undefined) please
*A* 97.9% (inactive)

*Q* Entry Cc1cc(C(C)(C)c2ccc(O)c(C)c2)ccc1O please
*A* 85.3% (inactive)

*Q* Entry O=C(CCl)Nc1ccc(Cl)cc1 please
*A* 38.3% (inactive)

*Q* Entry COC(=O)C1C(O)C(C)C(O)C(C)/C=C\C=C(C)C(=O)Nc2c(C)c(OC(C)=O)c3c(c2O)C(=O)C(C)=C2OCOC(=C23)C(C)=CC(C)(O)C(O)C(C)C1O (centres undefined) please
*A* 78.7% (inactive)

*Q* Entry O=[N+]([O-])c1ccc(N(CCO)CCO)c2c1no[n+]2[O-] please
*A* -26.5% (active)

*Q* Entry CC12OOC(c3ccccc31)c1c2ccc2ccccc12 (centres undefined) please
*A* -91.2% (active)

*Q* Entry [Cl][Hg][c]1ccc(Cl)s1 please
*A* -70.9% (active)

*Q* Entry CC[C@@]1(O)C[C@H](OC2CC(N(C)C)C(O)C(C)O2)c2c(cc3c(c2O)C(=O)c2c(O)ccc(O)c2C3=O)[C@H]1C(=O)OC (some centres undefined) please
*A* -85.1% (active)
